Provenance of the data: patent US20240239767A1

Here, each record is paired with measured IC50 data.
Target: potassium ion channel hERG (human Ether-á-go-go-Related Gene) (Homo sapiens, UniProt Q12809)
Sequence (Q12809 whole entry): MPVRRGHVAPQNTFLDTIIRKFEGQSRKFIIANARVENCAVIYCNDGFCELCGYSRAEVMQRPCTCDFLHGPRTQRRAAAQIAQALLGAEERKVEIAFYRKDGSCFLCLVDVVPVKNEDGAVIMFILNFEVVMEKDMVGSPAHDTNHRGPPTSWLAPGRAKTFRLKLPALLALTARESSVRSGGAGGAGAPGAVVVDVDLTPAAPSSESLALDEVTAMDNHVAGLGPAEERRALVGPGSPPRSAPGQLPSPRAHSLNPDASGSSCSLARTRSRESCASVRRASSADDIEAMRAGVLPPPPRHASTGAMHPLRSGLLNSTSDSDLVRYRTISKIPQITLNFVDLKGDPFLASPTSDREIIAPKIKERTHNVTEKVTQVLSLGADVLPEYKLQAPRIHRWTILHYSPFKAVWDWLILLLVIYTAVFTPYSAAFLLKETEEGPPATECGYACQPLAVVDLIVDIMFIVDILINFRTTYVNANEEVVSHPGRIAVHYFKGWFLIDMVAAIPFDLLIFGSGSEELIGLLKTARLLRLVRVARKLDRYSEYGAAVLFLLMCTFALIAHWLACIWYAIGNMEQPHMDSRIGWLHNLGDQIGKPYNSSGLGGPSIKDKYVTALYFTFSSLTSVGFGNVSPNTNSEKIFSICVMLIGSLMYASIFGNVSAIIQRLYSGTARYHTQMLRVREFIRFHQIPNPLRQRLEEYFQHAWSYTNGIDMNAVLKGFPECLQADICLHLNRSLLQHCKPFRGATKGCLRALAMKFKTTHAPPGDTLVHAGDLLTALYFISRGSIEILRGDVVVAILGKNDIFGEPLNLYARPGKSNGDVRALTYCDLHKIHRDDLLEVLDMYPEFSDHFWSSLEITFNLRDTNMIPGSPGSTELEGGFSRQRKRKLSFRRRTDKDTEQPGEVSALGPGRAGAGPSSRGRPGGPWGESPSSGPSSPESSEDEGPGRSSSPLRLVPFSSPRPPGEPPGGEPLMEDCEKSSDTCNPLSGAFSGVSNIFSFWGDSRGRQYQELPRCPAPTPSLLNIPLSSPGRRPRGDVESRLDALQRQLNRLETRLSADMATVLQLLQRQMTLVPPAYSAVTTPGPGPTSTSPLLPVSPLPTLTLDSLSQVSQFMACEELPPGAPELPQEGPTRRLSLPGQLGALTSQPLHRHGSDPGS
Assay: Assay 5 - hERG assay (SyncroPatch 384PE patch clamp, CHO cells)
Conditions: geometric mean, CHO cells over-expressing hERG, read-out: Assay 5 (hERG Hu CHO IF EPh CR-Syncro) GMean IC50

Cc1ncc(-c2ccc(=O)n(-c3ccc(N[C@H]4CC[C@H](Nc5nc6cccnc6[nH]5)C4)nc3)c2)cn1
> 40 µM
O=c1ccccn1-c1ccc(N[C@H]2CC[C@H](Nc3nc4cc(C5CC5)cnc4[nH]3)C2)nc1
> 40 µM
O=c1ccccn1-c1ccc(N[C@H]2CC[C@H](Nc3nc4ccc(CO)cc4o3)C2)nc1
> 40 µM

Please turn your attention to the following entry.
Enquiry: Report measured IC50; entry is Fc1cccc(OC(F)F)c1-c1ccc(N[C@H]2CC[C@H](Nc3nc4cccnc4[nH]3)C2)nc1
Return: 2.22 µM

====

Target: GSK3b (Glycogen synthase kinase-3 beta) (Homo sapiens, UniProt P49841)
Sequence (P49841 whole entry): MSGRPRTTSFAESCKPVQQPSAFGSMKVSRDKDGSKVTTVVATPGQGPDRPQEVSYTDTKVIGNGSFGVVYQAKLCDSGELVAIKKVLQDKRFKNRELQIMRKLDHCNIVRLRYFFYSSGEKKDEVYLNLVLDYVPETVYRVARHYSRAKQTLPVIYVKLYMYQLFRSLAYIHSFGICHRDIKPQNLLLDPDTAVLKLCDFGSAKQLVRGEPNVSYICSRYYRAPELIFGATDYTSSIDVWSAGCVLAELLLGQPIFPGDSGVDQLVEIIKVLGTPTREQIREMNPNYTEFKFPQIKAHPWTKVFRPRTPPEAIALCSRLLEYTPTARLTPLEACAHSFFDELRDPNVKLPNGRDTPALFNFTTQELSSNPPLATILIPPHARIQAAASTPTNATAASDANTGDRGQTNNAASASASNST
Assay: Assay 6 - GSK3b assay (ThermoFisher, FRET Z-Lyte)
Assay type: biochemical
Conditions: geometric mean; ATP Conc: 10.000 μM; read-out: Assay 6 (GSK3B FRET-Z-Lyte CR) GMean IC50 (μM) ATP Conc: 10.000
Description: This assay measures the activity of the compounds at GSK3b (Glycogen synthase kinase-3 beta). The test compounds were screened in 1% DMSO (final) in the well. For 10-point titrations, 3-fold serial dilutions are conducted from the starting concentration of 10 μM. • Bar-coded Corning, low volume NBS, black 384-well plate • 1. 2.5 μL—4× Test Compound or 100 nL 100× plus 2.4 μL kinase buffer • 2. 5 μL—2× Peptide/Kinase Mixture • 3. […] Read on fluorescence plate reader and analyse the data […]
READOUT LABEL: IC50

Consider the worked cases shown below.
Fc1cccc(OC(F)(F)F)c1-c1ccc(N[C@H]2CC[C@H](Nc3nc4cccnc4[nH]3)C2)nc1
> 10 µM
O=c1ccccn1-c1ccc(N[C@H]2CC[C@H](Nc3nc4ncccc4s3)C2)nc1
> 10 µM
O=c1ccccn1-c1ccc(N[C@H]2CC[C@H](Nc3nc4cc(C(F)(F)F)cnc4[nH]3)C2)nc1
0.153 µM
Cn1c(=O)n(-c2ccc(N[C@H]3CC[C@H](Nc4nc5cccnc5[nH]4)C3)nc2)c2ncccc21
> 10 µM
O=c1c(Cl)cccn1-c1ccc(N[C@H]2CC[C@H](Nc3nc4cccnc4[nH]3)C2)nc1
6.14 µM

Please turn your attention to the following entry.
Enquiry: Report measured IC50; entry is O=c1ccccn1-c1ccc(N[C@H]2CC[C@H](Nc3nc4ccccc4[nH]3)C2)nc1
Return: > 10 µM

====

Target: GSK3b (Glycogen synthase kinase-3 beta) (Homo sapiens)
Experiment: Assay 6 - GSK3b assay (ThermoFisher, FRET Z-Lyte)
Format: biochemical
Settings: geometric mean; ATP Conc: 10.000 μM; read-out: Assay 6 (GSK3B FRET-Z-Lyte CR) GMean IC50 (μM) ATP Conc: 10.000
Experimental: This assay measures the activity of the compounds at GSK3b (Glycogen synthase kinase-3 beta). The test compounds were screened in 1% DMSO (final) in the well. For 10-point titrations, 3-fold serial dilutions are conducted from the starting concentration of 10 μM. • Bar-coded Corning, low volume NBS, black 384-well plate • 1. 2.5 μL—4× Test Compound or 100 nL 100× plus 2.4 μL kinase buffer • 2. 5 μL—2× Peptide/Kinase Mixture • 3. […] Read on fluorescence plate reader and analyse the data […]
READOUT LABEL: IC50

Consider the worked cases shown below.
O=c1ccc(Cl)cn1-c1ccc(N[C@H]2CC[C@H](Nc3nc4cccnc4[nH]3)C2)nc1 [Example 71]
2.83 µM
COc1cccn(-c2ccc(N[C@H]3CC[C@H](Nc4nc5cccnc5s4)C3)nc2)c1=O [Example 21]
> 10 µM
O=c1ccccn1-c1ccc(N[C@H]2CC[C@H](Nc3nc4ccccc4s3)C2)nc1 [Example 7]
> 10 µM

Please turn your attention to the following entry.
Enquiry: Report measured IC50; entry is O=c1ccccn1-c1ccc(N[C@H]2CC[C@H](Nc3nc4c(Cl)c(Cl)cnc4[nH]3)C2)nc1 [Example 50]
Return: 0.024 µM
